Target: IDO (Homo sapiens)
Construct: endogenous in cells
Sequence (P14902 whole entry): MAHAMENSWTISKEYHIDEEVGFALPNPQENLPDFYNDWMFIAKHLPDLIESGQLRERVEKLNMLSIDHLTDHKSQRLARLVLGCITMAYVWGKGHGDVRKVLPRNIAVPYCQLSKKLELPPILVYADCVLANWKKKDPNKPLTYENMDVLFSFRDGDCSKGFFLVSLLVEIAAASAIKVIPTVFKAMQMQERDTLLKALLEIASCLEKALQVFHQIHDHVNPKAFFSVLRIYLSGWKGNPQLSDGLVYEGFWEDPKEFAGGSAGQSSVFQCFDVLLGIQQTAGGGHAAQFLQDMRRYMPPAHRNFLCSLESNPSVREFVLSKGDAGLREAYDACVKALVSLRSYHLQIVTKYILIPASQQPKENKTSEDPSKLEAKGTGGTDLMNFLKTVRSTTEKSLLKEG
Assay: Hela cell-based IDO inhibitory activity test (IFNγ added)
Details: Hela cells with IFNγ, 48 hours incubation, OD 480 nm
pIC50: −log10 of the molar value.
Please respond with reported pIC50 for every item in the list.

Value sought: pIC50, system IDO (Homo sapiens), item O=C(C[C@H]1C[C@H]2CC(c3ccnc4ccc(F)cc34)C[C@H]2C1)Nc1ccc(Cl)cn1 (some centres unmarked) . Result: 7.60 to 8.30

I looked up C#Cc1ccc(NC(=O)C(C)[C@H]2C[C@H]3C[C@@H](c4ccnc5ccc(F)cc45)C[C@H]3C2)nc1 (some centres unmarked) and its pIC50 for IDO (Homo sapiens) was ≥ 8.30

Here O=C(C[C@@H]1C[C@H]2CC(c3ccnc4ccc(F)cc34)C[C@H]2C1)Nc1ccc(Cl)nc1 (some centres unmarked) was tested on IDO (Homo sapiens), and its pIC50 came to 7.60 to 8.30

Bench note, IDO (Homo sapiens): entry O=C(Nc1ccc(Cl)cn1)C1([C@H]2C[C@H]3C[C@@H](c4ccnc5ccc(F)cc45)C[C@H]3C2)CC1 , its pIC50 = ≥ 8.30

Log: IDO (Homo sapiens), molecule CC(C(=O)Nc1ccc(Cl)nc1)[C@H]1C[C@]2(C)C[C@H](c3ccnc4ccc(F)cc34)C[C@]2(C)C1 (some centres unmarked) , pIC50 = 7.00 to 7.60

Measured pIC50 for this entry C#Cc1ccc(NC(=O)C2([C@H]3C[C@H]4C[C@@H](c5ccnc6ccc(F)cc56)C[C@H]4C3)CC2)nc1 on IDO (Homo sapiens): ≥ 8.30

The recorded pIC50 with IDO (Homo sapiens) for C#Cc1ccc(NC(=O)C[C@@H]2C[C@@H]3CC(c4ccnc5ccc(F)cc45)=C[C@@H]3C2)nc1 was ≥ 8.30

pIC50 value, target or system IDO (Homo sapiens), for C#Cc1ccc(NC(=O)C[C@@H]2C[C@H]3CC(c4ccnc5ccc(F)cc45)C[C@H]3C2)cc1 (some centres unmarked) : ≥ 8.30

IDO (Homo sapiens) data for CC(C(=O)Nc1ccc(Cl)cc1)[C@H]1C[C@]2(C)C[C@H](c3ccnc4ccc(F)cc34)C[C@]2(C)C1 (some centres unmarked) ; its pIC50: 7.60 to 8.30

IDO (Homo sapiens) assay, molecule CC(C(=O)Nc1ccc(C#N)nc1)[C@H]1C[C@H]2C[C@@H](c3ccnc4ccc(F)cc34)C[C@H]2C1 (some centres unmarked) , recorded pIC50 = ≥ 8.30

pIC50 of C[C@H](C(=O)Nc1ccc(Cl)cn1)[C@H]1C[C@H]2CC(c3ccnc4ccc(F)cc34)C[C@H]2C1 (single isomer, unassigned) [Compound 26B] , assay on IDO (Homo sapiens), is ≥ 8.30

Item O=C(C[C@]1(O)C[C@H]2C[C@@H](c3ccnc4ccc(F)cc34)C[C@H]2C1)Nc1ccc(Cl)cc1 ; assay system IDO (Homo sapiens); pIC50 reported as 7.60 to 8.30

Item: N#Cc1ccc(NC(=O)C[C@@H]2C[C@@H]3C[C@H](c4ccnc5ccc(F)cc45)C[C@@H]3C2)cn1 | System: IDO (Homo sapiens) | pIC50: ≥ 8.30

Note to self: pIC50 of CC(C(=O)Nc1ccc(C#CC2CC2)cn1)[C@H]1C[C@H]2CC(c3ccnc4ccc(F)cc34)C[C@H]2C1 (some centres unmarked) with IDO (Homo sapiens) was < 7.00

Form field, pIC50 with IDO (Homo sapiens), item O=C(C[C@@H]1C[C@@H]2CC(c3ccnc4ccc(F)cc34)=C[C@@H]2C1)Nc1ccc(Cl)nc1 (racemic) : ≥ 8.30

The measured pIC50 that CC(C(=O)Nc1ccc(C#N)cn1)[C@H]1C[C@H]2C[C@@H](c3ccnc4ccc(F)cc34)C[C@H]2C1 (some centres unmarked) showed for IDO (Homo sapiens) is ≥ 8.30

Response field pIC50 (IDO (Homo sapiens)) for item C/C(C(=O)Nc1ccc(Cl)cc1)=C1\C[C@@H]2C[C@H](c3ccnc4ccc(F)cc34)C[C@@H]2C1 : ≥ 8.30

Summary line: CC(C(=O)Nc1ccc(C#CC(C)(C)O)cn1)[C@H]1C[C@H]2C[C@@H](c3ccnc4ccc(F)cc34)C[C@H]2C1 (some centres unmarked) , IDO (Homo sapiens), reported pIC50 = ≥ 8.30

# CC(C(=O)Nc1ccc(-c2cnn(C3CC3)c2)nc1)[C@H]1C[C@H]2C[C@@H](c3ccnc4ccc(F)cc34)C[C@H]2C1 (some centres unmarked) with IDO (Homo sapiens): pIC50 is < 7.00

With IDO (Homo sapiens) as the test system, CC(C(=O)Nc1ccc(Cl)nc1)N1C[C@H]2C[C@@H](c3ccnc4ccc(F)cc34)C[C@H]2C1 (some centres unmarked) showed pIC50 of 7.60 to 8.30
